Biological target: Calpain-1 catalytic subunit (Homo sapiens, UniProt P07384)
Sequence (P07384 whole entry): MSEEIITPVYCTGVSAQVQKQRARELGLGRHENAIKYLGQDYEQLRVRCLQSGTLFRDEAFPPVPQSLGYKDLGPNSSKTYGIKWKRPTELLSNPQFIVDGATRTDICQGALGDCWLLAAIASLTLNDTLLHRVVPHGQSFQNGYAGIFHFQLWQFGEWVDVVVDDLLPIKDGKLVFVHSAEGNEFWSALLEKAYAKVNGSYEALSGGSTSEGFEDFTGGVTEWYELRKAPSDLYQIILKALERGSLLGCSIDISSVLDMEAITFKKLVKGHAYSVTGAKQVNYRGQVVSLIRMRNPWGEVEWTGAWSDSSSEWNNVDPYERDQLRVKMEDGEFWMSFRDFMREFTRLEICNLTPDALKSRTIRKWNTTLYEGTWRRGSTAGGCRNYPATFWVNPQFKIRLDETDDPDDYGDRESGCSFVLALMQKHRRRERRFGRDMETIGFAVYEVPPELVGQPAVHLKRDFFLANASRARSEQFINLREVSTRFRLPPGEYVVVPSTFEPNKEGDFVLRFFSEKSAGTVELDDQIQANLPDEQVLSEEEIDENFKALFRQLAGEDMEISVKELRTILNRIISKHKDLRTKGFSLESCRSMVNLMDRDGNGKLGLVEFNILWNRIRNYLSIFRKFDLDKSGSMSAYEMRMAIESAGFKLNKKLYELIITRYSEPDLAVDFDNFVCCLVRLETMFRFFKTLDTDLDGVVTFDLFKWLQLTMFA
Experiment: Inhibition of human erythrocytes mu-calpain
OBSERVED_PROPERTY: IC50 (µM)

Example cases with answers are listed next.
INSERT INTO measurements (smi, observed_property, result_value) VALUES
  ('COc1ccc(OC)c(C(=O)CCC(=O)N[C@@H](Cc2ccccc2)C(=O)C(=O)NCCc2ccccc2)c1', 'IC50', 2.09),
  ('O=C(CCC(=O)c1ccc(O)cc1O)N[C@@H](Cc1ccccc1)C(=O)C(=O)NCc1ccccc1', 'IC50', 5.73),
  ('NC(=O)C(=O)[C@H](Cc1ccccc1)NC(=O)CCC(=O)c1ccccc1', 'IC50', 3.2);

a. COc1ccc(OC)c(CCCC(=O)N[C@@H](Cc2ccccc2)C(=O)C(N)=O)c1
b. COCOc1cc(OC)ccc1C(=O)CCC(=O)N[C@@H](Cc1ccccc1)C(=O)C(N)=O
### Prompt Hello, I am sorting some records. Could you say if a or b has the smaller IC50 value? Response format: the label of the selected entry.
### Response b
(b: 0.7 µM, a: 1.86 µM)

1. COc1ccc(OC)c(C(=O)CCC(=O)N[C@@H](Cc2ccccc2)C(=O)C(=O)NCc2ccc(OC)c(OC)c2)c1
2. COc1ccc(C(=O)CCC(=O)N[C@@H](Cc2ccccc2)C(=O)C(=O)NCc2ccccc2)c(OC)c1
3. COc1ccc(OC)c(C(=O)CCC(=O)N[C@@H](Cc2ccccc2)C(=O)C(=O)NCc2ccccc2)c1
### Prompt I would appreciate it if you could sort these 3 compounds by IC50, starting from the smallest number. Answer with the labels in sequence, matching the requested order.
### Response 1, 3, 2
(1: 1.64 µM, 3: 3.77 µM, 2: 6.16 µM)

A. COc1ccc(CNC(=O)C(=O)[C@H](Cc2ccccc2)NC(=O)CCC(=O)c2cc(OC)ccc2OC)cc1
B. COc1ccc(C(=O)CCC(=O)N[C@@H](Cc2ccccc2)C(=O)C(N)=O)c(OC)c1
### Prompt Between A and B , which one shows the smaller IC50 number? Refer to your chosen entry by its label in the reply.
### Response B
(B: 1.18 µM, A: 2.35 µM)
